- System: SK-MEL-28 melanoma
- ASSAY TEXT: NCI tumour cell line growth inhibition, 48 h
OBSERVABLE: TGI

COMPOUND	OBSERVABLE	RECORDED MEASUREMENT
Cc1cc(C)c(-c2cc(O)c(-c3c(C)cc(C)cc3C)cc2O)c(C)c1	TGI	> 100 µM
C=C(C)C(=O)Oc1ccc(N=Nc2ccc(C)cc2)ccc1=O	TGI	11.7 µM
NC(N)=NS(=O)(=O)c1ccc(Nc2c3ccccc3nc3c(C(=O)NNCCO)cccc23)cc1	TGI	> 1 µM
CN(C)c1ccc(/C=C/c2nc3ccccc3s2)cc1	TGI	> 100 µM

Here's the next entry for you.
The measured TGI associated with Cc1ccc(/C=N/Nc2ccccn2)s1 reads > 100 µM

Reference source: PubChem BioAssay (NCI)
